The following molecules are listed with their measured Rate of Ascorbate Oxidation values.
# Test: Ascorbate oxidation by MPs monitored at 266 nm
# Assay type: biochemical
# Assay conditions: MP 10 μM, 50 μM ascorbate, 0.1 M potassium phosphate pH 7.4, ± standard error, n=3
Endpoint: Rate of Ascorbate Oxidation

1) C[n+]1ccc(-c2c3nc(c(-c4cc[n+](C)cc4)c4ccc([n-]4)c(-c4cc[n+](C)cc4)c4nc(c(-c5cc[n+](C)cc5)c5ccc2[n-]5)C=C4)C=C3)cc1.Cc1ccc(S(=O)(=O)[O-])cc1.Cc1ccc(S(=O)(=O)[O-])cc1.Cc1ccc(S(=O)(=O)[O-])cc1.Cc1ccc(S(=O)(=O)[O-])cc1.[Cu+2]: 6.50 ± 0.32 µM/min
2) C[n+]1ccc(-c2c3nc(c(-c4cc[n+](C)cc4)c4ccc([n-]4)c(-c4cc[n+](C)cc4)c4nc(c(-c5cc[n+](C)cc5)c5ccc2[n-]5)C=C4)C=C3)cc1.[Cl-].[Cl-].[Cl-].[Cl-].[Cl-].[Fe+3]: 146.20 ± 7.2 µM/min
3) C=CC1=C(C)c2cc3[n-]c(cc4[n-]c(cc5nc(cc1n2)C(C)=C5C=C)c(C)c4CCC(=O)[O-])c(CCC(=O)[O-])c3C.[H+].[H+].[Mn+2]: 0.96 ± 0.05 µM/min
4) C[n+]1ccc(-c2c3nc(c(-c4cc[n+](C)cc4)c4ccc([n-]4)c(-c4cc[n+](C)cc4)c4nc(c(-c5cc[n+](C)cc5)c5ccc2[n-]5)C=C4)C=C3)cc1.[Cl-].[Cl-].[Cl-].[Cl-].[Cl-].[Mn+3]: 6.77 ± 0.33 µM/min
5) C=CC1=C(C)c2cc3[n-]c(cc4nc(cc5[n-]c(cc1n2)c(C)c5CCC(=O)O)C(CCC(=O)O)=C4C)c(C)c3C=C.[Fe] [FePPIX, Iron (III) protoporphyrin IX dichloride]: 1.33 ± 0.07 µM/min
6) O=C(O)c1ccc(-c2c3nc(c(-c4ccc(C(=O)O)cc4)c4ccc([n-]4)c(-c4ccc(C(=O)O)cc4)c4nc(c(-c5ccc(C(=O)O)cc5)c5ccc2[n-]5)C=C4)C=C3)cc1.[Fe+2]: 5.8 µM/min
